Molecular target: amyloid β-protein (human, 1-40) (Homo sapiens)
Assay: Effect of drugs on the amyloid formation of amyloid β-protein (Thioflavine T method)
Assay type: biochemical
Details: 15 μM amyloid β-protein (human, 1-40), PBS(−), room temperature, 1 day; drug 1.6, 8 or 40 μM; read-out: IC50 value (50% inhibition concentration of amyloid formation)
Recorded pIC50 for the following compounds
Remember the convention: pIC50 equals -log10 of concentration in molar.

INSERT INTO measurements (compound, assay_system, test_value) VALUES
  ('Nc1c(/N=N/c2ccc(-c3ccc(/N=N/c4cc(S(=O)(=O)O)c5ccccc5c4N)cc3)cc2)cc(S(=O)(=O)O)c2ccccc12 [Congo Red, Congo red, reference compound]', 'amyloid β-protein (human, 1-40) (Homo sapiens)', 6.06);

// moving on: another record for pIC50
Measured pIC50, C(=NNc1ccc(-c2cnco2)cc1)c1ccncc1 [Example 3] : 5.53

* * *

Molecular target: Amyloid β-protein (human, 1-42) (Homo sapiens, UniProt P05067)
Sequence (P05067 18-42): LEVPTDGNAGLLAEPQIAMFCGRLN
READOUT_TYPE: IC50 (nM)
Your answer is read as nM, so omit the unit and give the number.

Query `C(=NNc1ccc(-c2cnco2)cc1)c1ccncc1` on Amyloid β-protein (human, 1-42) (Homo sapiens, UniProt P05067); IC50 returned: 700

* * *

Target: amyloid β-protein (human, 1-40) (Homo sapiens, UniProt P05067)
Sequence (P05067 18-40): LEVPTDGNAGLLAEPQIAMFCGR
Test: Effect on amyloid formation of various amyloid forming proteins (Thioflavine T method): Aβ1-40
Type: biochemical
Conditions: Aβ1-40 10 μM, PBS(−), room temperature, sampled next day; read-out: IC50 (50% inhibition concentration of amyloid formation), Aβ1-40
READOUT_TYPE: IC50 (nM)
Kindly provide the numeric value in nM only, without the unit symbol.

// IC50 lookup, compound = `C(=NNc1ccc(-c2cnco2)cc1)c1ccncc1` , result: 1160

* * *

Target: partial fragment of prion protein (PrP 118-135) (Homo sapiens)
READOUT_TYPE: IC50 (µM)
Report the value in µM with no unit label.

# `C(=NNc1ccc(-c2cnco2)cc1)c1ccncc1` with partial fragment of prion protein (PrP 118-135) (Homo sapiens): IC50 is 1.97

* * *

Molecular target: amyloid β-protein (human, 1-40) (Homo sapiens)
Test: Effect of drugs on the amyloid formation of amyloid β-protein (Thioflavine T method)
Type: biochemical
Conditions: read-out: IC50 value (50% inhibition concentration of amyloid formation)
READOUT_TYPE: IC50 (µM)
Supply the numeric figure in µM, leaving out any unit text.

Memo: CC(=C(C#N)C#N)c1ccc2cc(N(C)C)ccc2c1 [DDNP] , reported IC50: 3.23

* * *

Biological target: Amyrin (Homo sapiens)
Sequence (P10997 34-70 limits assumed): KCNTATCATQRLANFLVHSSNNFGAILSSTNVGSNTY
READOUT_TYPE: IC50 (nM)
Unit nM implied. Number only.

Lab note: measured IC50 of `C(=NNc1ccc(-c2cnco2)cc1)c1ccncc1` was 2080
